Would you kindly list Percent Effect for each of these compounds?
- system: Chromo domain-containing protein 1 (Saccharomyces cerevisiae (strain ATCC 204508 / S288c) (Baker's yeast)) (UniProt P32657)
- Sequence (P32657 whole entry, the tested form may be a part): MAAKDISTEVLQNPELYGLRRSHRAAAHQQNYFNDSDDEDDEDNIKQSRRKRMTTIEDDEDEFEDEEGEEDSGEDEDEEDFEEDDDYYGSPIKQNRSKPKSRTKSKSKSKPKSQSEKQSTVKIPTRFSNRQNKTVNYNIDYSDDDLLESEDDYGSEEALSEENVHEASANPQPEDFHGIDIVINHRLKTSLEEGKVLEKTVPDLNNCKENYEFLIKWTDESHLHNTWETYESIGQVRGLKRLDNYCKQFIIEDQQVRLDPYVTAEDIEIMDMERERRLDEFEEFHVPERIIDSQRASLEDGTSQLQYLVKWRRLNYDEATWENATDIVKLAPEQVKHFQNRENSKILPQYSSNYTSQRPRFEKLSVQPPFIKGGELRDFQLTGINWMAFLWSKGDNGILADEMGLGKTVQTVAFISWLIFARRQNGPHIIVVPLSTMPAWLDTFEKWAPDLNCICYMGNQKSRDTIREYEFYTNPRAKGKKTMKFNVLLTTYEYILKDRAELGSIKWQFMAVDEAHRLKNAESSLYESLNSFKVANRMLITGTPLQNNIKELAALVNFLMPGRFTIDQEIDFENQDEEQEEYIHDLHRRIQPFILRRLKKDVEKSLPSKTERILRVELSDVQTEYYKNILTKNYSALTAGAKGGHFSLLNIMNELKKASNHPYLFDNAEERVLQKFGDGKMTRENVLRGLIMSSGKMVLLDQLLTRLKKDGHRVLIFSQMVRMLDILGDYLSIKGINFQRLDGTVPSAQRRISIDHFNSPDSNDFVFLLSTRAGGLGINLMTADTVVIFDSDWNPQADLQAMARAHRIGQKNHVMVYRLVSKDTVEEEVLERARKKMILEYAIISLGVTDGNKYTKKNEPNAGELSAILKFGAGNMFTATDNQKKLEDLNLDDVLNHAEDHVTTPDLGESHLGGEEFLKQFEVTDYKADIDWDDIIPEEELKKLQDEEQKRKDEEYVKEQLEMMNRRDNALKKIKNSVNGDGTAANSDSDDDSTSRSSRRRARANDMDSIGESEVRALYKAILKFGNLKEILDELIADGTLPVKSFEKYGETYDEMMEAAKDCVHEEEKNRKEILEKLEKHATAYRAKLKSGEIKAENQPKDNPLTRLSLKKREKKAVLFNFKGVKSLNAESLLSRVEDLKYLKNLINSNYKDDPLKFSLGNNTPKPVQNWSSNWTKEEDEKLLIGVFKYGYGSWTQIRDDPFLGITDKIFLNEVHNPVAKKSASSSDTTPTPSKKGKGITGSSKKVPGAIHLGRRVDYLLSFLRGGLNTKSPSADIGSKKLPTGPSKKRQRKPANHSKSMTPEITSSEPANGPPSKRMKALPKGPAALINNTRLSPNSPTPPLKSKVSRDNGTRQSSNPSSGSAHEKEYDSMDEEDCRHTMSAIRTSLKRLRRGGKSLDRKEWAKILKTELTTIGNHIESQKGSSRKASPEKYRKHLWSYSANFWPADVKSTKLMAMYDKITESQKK
- procedure-summary: ScCHD-1 Enzyme Inhibition Assay
- Format: functional
- Set-up: scale not given: in the data most compounds retested in dose-response had high values
- measurement-setup: 30 µM
Supply the numeric figure in %, leaving out any unit text.

### Prompt Could you share which Percent Effect value was measured for COc1ccc(CN2CCC3(CC2)NC(=O)CC3c2ccncc2)cc1 (configuration not stated) ?
### Response -1.91

### Prompt And what about the compound c1cc(CN2Cc3nnn(CC4CC4)c3C(COCC3CC3)C2)co1 (configuration not stated) ?
### Response 2.41

### Prompt For CCn1c(CN2CCCC2)nnc1C1CCN(Cc2ccc(C)o2)CC1 then?
### Response -6.17

### Prompt Also check CC(C)n1ccnc1C1CCN(C(=O)c2ccccc2)CC1
### Response -5

### Prompt Same for Cc1cc(C(=O)NCc2ccc(N3CCCC(C(N)=O)C3)cc2)[nH]n1 (configuration not stated)
### Response -7.84

### Prompt Try the compound Cc1ncnc2c1CCN(Cc1ccc3c(c1)OCO3)CC2
### Response -2.7

### Prompt Cool, now Cc1cc(CN2CCOC(CN(C)c3cccnn3)C2)no1 (configuration not stated)
### Response -18.6

### Prompt Please do the same for CC(C)(C)c1nnc(CN2CCn3c(nnc3C3CC3)C2)o1 as well.
### Response 9.52

### Prompt Would you kindly repeat that for Fc1ccccc1-c1noc2c1CN(CC1CC1)CC2 ?
### Response -0.386

### Prompt Continue with Cc1nc(C)c(C(=O)OCCNc2ncccc2C#N)s1
### Response 0.0387

### Prompt Lookup CCC1CN(CCC(=O)N(C)C)CCN1CCOC (configuration not stated)
### Response -3.8

### Prompt And for CC(=O)N1CCC2(CCCN(Cc3ccc(Cl)c(C(F)(F)F)c3)C2)C1 (configuration not stated) ?
### Response 0.22

* * *

- system: Chromo domain-containing protein 1 (Saccharomyces cerevisiae (strain ATCC 204508 / S288c) (Baker's yeast))
- procedure-summary: ScCHD-1 Enzyme Inhibition Assay
- Type: functional
- Design: scale not given: in the data most compounds retested in dose-response had high values
- measurement-setup: 30 µM
property-label: Percent Effect (%)
Hi! Could you send only the number? It should be in %, unit omitted.

### Prompt Which Percent Effect is listed for CC1CCN(c2ncc3c(n2)CN(c2ccccc2)C3=O)CC1 ?
### Response 5.77

### Prompt Same question, Cc1ccccc1CNC(=O)CN1CCN(Cc2nccn2C)CC1 this time
### Response -9.21

### Prompt # iterate: CC(C)NC(=O)N1CCC2(C1)CN(c1ccsc1)C(=O)CN2C (stereo unspecified)
### Response 10.4

### Prompt Consider next the molecule COCCNC(=O)[C@H]1C[C@@H]2CCN(Cc3ccoc3)C[C@H]2O1 in the same way.
### Response -1.51

### Prompt Now this one: Cc1ccc(-c2noc(CN3CCOC(CN(C)C)C3)n2)cc1F (stereo unspecified)
### Response 2.19

### Prompt Okay, and CC(=O)N1CCN(C(=O)C2SCCc3sccc32)CC1 (stereo unspecified) ?
### Response 0.658

### Prompt # repeat for Cc1cc(-c2ccc(C(=O)O)cc2)nc(C2CCCN(C(C)C)C2)n1 (stereo unspecified)
### Response -24.7

### Prompt Next up: Cc1ccc(C(=O)N2C[C@@H]3OCCN(CCN4CCCC4)[C@@H]3C2)cn1
### Response -1.17

### Prompt Entry Cc1ncsc1-c1nnc(C2CCN(CC3CCCCC3)CC2)o1 please
### Response -21.3

### Prompt Likewise for CC(C)Oc1ncccc1CNC(=O)C1CCCN(C(=O)C2CC2)C1 (stereo unspecified) ?
### Response -4.9

### Prompt Now the molecule O=C(c1cccn2ccnc12)N1CCCN(c2cccnn2)CC1
### Response -10.1
